- System: human prostate carcinoma LNCaP cell line
- experiment_notes: Cell culture panel bioassay, LNCaP cell line
- Type: cell-based
- measurement_parameters: concentration required to inhibit cell growth by 50%; triplicate experiments; read-out: IC50 LNCaP
readout_name: IC50 (pM)
One number for each entry, in pM.

>>> reading("CCC(=O)N(C)[C@@H](C)C(=O)O[C@H]1CC(=O)N(C)c2cc(cc(OC)c2Cl)C/C(C)=C/C=C[C@@H](OC)[C@@]2(O)C[C@H](OC(=O)N2)[C@@H](C)[C@@H]2O[C@@]12C")
160
>>> reading("COc1cc2cc(c1Cl)N(C)C(=O)CC(OC(=O)C(C)N(C)C(=O)CC(C)C)C1(C)OC1C(C)C1CC(O)(NC(=O)O1)C(OC)/C=C/C=C(\\C)C2 (stereo not shown)")
160

Dear reader, for each entry below, please note its IC50.
1. COc1cc2cc(c1Cl)N(C)C(=O)C[C@H](OC(=O)[C@H](C)N(C)C(C)=O)[C@]1(C)O[C@H]1[C@H](C)[C@@H]1C[C@@](O)(NC(=O)O1)[C@H](OC)/C=C/C=C(\C)C2
2. COc1cc2cc(c1Cl)N(C)C(=O)C[C@H](OC(=O)C(C)N(C)C(=O)C(C)C)[C@]1(C)O[C@H]1[C@H](C)[C@@H]1C[C@@](O)(NC(=O)O1)[C@H](OC)/C=C/C=C(\C)C2 (stereo partly shown)

Reply:
320
54

---

Give measured IC50 for each item. Keep answers brief.
- Tested on: human oral epidermoid carcinoma KB cell line
- experiment_notes: Cell culture panel bioassay, KB cell line
- Format: cell-based
- measurement_parameters: concentration required to inhibit cell growth by 50%; triplicate experiments; read-out: IC50 KB
Numbers only, in nM.

Worked cases, IC50 given:
>>> reading("COc1cc2cc(c1Cl)N(C)C(=O)CC(OC(=O)C(C)N(C)C(=O)CC(C)C)C1(C)OC1C(C)C1CC(O)(NC(=O)O1)C(OC)/C=C/C=C(\\C)C2 (stereo not shown)")
0.11
>>> reading("COc1cc2cc(c1Cl)N(C)C(=O)C[C@H](OC(=O)C(C)N(C)C(=O)C(C)C)[C@]1(C)O[C@H]1[C@H](C)[C@@H]1C[C@@](O)(NC(=O)O1)[C@H](OC)/C=C/C=C(\\C)C2 (stereo partly shown)")
0.05
>>> reading("COc1cc2cc(c1Cl)N(C)C(=O)C[C@H](OC(=O)[C@H](C)N(C)C(C)=O)[C@]1(C)O[C@H]1[C@H](C)[C@@H]1C[C@@](O)(NC(=O)O1)[C@H](OC)/C=C/C=C(\\C)C2")
0.17

Okay, now this compound:
Query: I would be grateful if you could share the reported IC50 for CCC(=O)N(C)[C@@H](C)C(=O)O[C@H]1CC(=O)N(C)c2cc(cc(OC)c2Cl)C/C(C)=C/C=C[C@@H](OC)[C@@]2(O)C[C@H](OC(=O)N2)[C@@H](C)[C@@H]2O[C@@]12C .
Reply: 0.061

---

- System: human colon carcinoma Col2 cell line
- experiment_notes: Cell culture panel bioassay, Col2 cell line
- Type: cell-based
- measurement_parameters: concentration required to inhibit cell growth by 50%; triplicate experiments; read-out: IC50 Col2
readout_name: pIC50
Give bare numbers, as −log10 of the molar value.

>>> reading("COc1cc2cc(c1Cl)N(C)C(=O)C[C@H](OC(=O)[C@H](C)N(C)C(C)=O)[C@]1(C)O[C@H]1[C@H](C)[C@@H]1C[C@@](O)(NC(=O)O1)[C@H](OC)/C=C/C=C(\\C)C2")
9.72

Give pIC50 for each listed item.
1. COc1cc2cc(c1Cl)N(C)C(=O)C[C@H](OC(=O)C(C)N(C)C(=O)C(C)C)[C@]1(C)O[C@H]1[C@H](C)[C@@H]1C[C@@](O)(NC(=O)O1)[C@H](OC)/C=C/C=C(\C)C2 (stereo partly shown)
2. CCC(=O)N(C)[C@@H](C)C(=O)O[C@H]1CC(=O)N(C)c2cc(cc(OC)c2Cl)C/C(C)=C/C=C[C@@H](OC)[C@@]2(O)C[C@H](OC(=O)N2)[C@@H](C)[C@@H]2O[C@@]12C
3. COc1cc2cc(c1Cl)N(C)C(=O)CC(OC(=O)C(C)N(C)C(=O)CC(C)C)C1(C)OC1C(C)C1CC(O)(NC(=O)O1)C(OC)/C=C/C=C(\C)C2 (stereo not shown)

Reply:
1: 10.21; 2: 9.80; 3: 9.82
